Where do these numbers come from? They come from paper PMC9482650.

biological target: DLG4_3, P78352; assay: holdup assay; parameters: key: below the threshold = too weak to quantify, mostly under pKd 3.1 to 4; conditions: plain residues with an end cap or a label only (N-terminal biotin on a linker: ttds)
Sequence (P78352 306-403): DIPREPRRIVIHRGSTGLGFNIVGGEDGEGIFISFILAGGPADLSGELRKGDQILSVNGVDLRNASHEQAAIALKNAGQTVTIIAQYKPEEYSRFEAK
Measured parameter: pKd
Form rule: numeric answer, no unit written next to it.

>  <Binder>
RSLEEEESQL [GRASP, Q7Z6J2]

>  <Observed value>
3.75

$$$$

Fill blank: measured pKd of the binder SSRTRRETQL [HPV16-E6, P03126] is ____.
5.06
